melting point by entry:

Below: 3 compounds and their reported melting point.
- substance-smiles: "Cc1nc2sc(-c3nnc(-c4ccccc4F)o3)c(N)c2c(C)c1C"
  data-value: "287 to 288 °C"
- substance-smiles: "CCc1c(C)nc2sc(C(=O)OC(C)(C)C)c(-c3ccc(Cl)cc3)c2c1C"
  data-value: "117 to 118 °C"
- substance-smiles: "N#Cc1c(Br)sc2nc3c(c(-c4cccs4)c12)CCCCC3"
  data-value: "196.4 to 196.7 °C"

Input CCc1c(C)nc2sc(C(=O)OC(C)(C)C)c(-c3ccc4c(c3)OCO4)c2c1C . Output melting point: 151 to 152 °C

Input CCOC(=O)c1sc2nc3c(c(-c4ccco4)c2c1N)CCC3 . Output melting point: 157.6 to 157.7 °C

Input Cc1nc2sc(-c3nc(COc4ccc(Cl)c(Cl)c4)no3)c(N)c2c(C)c1C . Output melting point: 197 to 200 °C

Input Cc1cccc(-c2nnc(-c3sc4nc(C)c(C)c(C)c4c3N)o2)c1 . Output melting point: 268 to 270 °C

Input CC(C)(C)OC(=O)c1sc2nc3c(c(-c4cccs4)c2c1N)CCCCC3 . Output melting point: 202.9 to 203.1 °C

Input Nc1c(C(=O)N2CCOCC2)sc2nc3c(cc12)CCCCC3 . Output melting point: 203 to 204 °C

Input Cc1nc2sc(-c3nc(-c4ccccc4)no3)c(N)c2c(C)c1C . Output melting point: 276 to 278 °C

Input CCc1c(C)nc2sc(N)c(C#N)c2c1C . Output melting point: 223 to 225 °C

----------
- Tested on: HCV replicon
- protocol-summary: microbe, parasite or virus in culture
- Format: cell-based
- study-conditions: Hepatitis C virus, 48 h, read-out: Replicon IC50s μM
IC50 by entry:

- compound: "Cc1nc2sc(C(=O)OC(C)(C)C)c(N)c2c(C)c1OCCN1CCN(CCCN(C)C)CC1 [Compound 69]"
  data-value: "0.5 to 2 µM"
- compound: "CC(C)(C)OC(=O)c1sc2nc3c(c(-c4cccs4)c2c1N)CCCC3 [Compound 34]"
  data-value: "> 2 µM"
- compound: "CCc1c(C)nc2sc(NC(=O)C(C)(C)C)c(C#N)c2c1C [Compound 50]"
  data-value: "> 2 µM"
- compound: "COc1ccccc1-c1nnc(-c2sc3nc(C)c(C)c(C)c3c2N)o1 [Compound 23]"
  data-value: "0.5 to 2 µM"

Input CCc1c(C)nc2sc(C(=O)N3CCCCC3)c(-c3ccc(OC)cc3)c2c1C [Compound 41] . Output IC50: > 2 µM

Input CCc1c(C)nc2sc(C(=O)OC(C)(C)C)c(-c3cccc(Cl)c3)c2c1C [Compound 43] . Output IC50: > 2 µM

Input CC(C)(C)c1cc(C(F)(F)F)c2c(N)c(C(N)=O)sc2n1 [Compound 2] . Output IC50: > 2 µM

Input CC1(C)Cc2c(c(N3CCOCC3)nc3sc(C(N)=O)c(N)c23)CO1 [Compound 4] . Output IC50: > 2 µM

Input CC(C)(C)NC(=O)c1sc2nc3c(c(-c4cccs4)c2c1N)CCCCC3 [Compound 48] . Output IC50: > 2 µM

Input Nc1c(C(=O)N2CCOCC2)sc2nc3c(cc12)CCCCC3 [Compound 1] . Output IC50: > 2 µM

Input Cc1nc2sc(-c3nc(-c4cccs4)no3)c(N)c2c(C)c1C [Compound 19] . Output IC50: < 0.5 µM

Where these numbers come from: patent US7645881B2
